src = ChEMBL document CHEMBL3399922

target: Acetylcholinesterase (Homo sapiens); assay: Inhibition of recombinant human AChE; parameters: unit not given here
Sequence (P22303 whole entry): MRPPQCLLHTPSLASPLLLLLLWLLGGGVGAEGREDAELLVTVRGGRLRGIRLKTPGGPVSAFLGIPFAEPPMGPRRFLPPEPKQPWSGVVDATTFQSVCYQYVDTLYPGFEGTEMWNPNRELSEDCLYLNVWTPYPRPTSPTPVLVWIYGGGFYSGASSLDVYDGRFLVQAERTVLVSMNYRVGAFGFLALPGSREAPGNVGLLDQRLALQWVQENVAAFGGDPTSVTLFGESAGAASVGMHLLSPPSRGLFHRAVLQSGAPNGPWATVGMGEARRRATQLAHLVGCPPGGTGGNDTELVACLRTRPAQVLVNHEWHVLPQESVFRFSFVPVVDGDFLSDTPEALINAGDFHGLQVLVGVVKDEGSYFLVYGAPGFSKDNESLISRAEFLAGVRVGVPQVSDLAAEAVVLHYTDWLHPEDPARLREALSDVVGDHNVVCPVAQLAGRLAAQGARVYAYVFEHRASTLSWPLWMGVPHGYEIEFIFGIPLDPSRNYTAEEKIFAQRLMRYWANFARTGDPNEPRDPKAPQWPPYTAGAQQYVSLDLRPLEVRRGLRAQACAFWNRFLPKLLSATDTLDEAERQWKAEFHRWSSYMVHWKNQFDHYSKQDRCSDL
Documented Ki across a set of compounds
Reply with the value as a number alone.

| compound | meas-value |
| --- | --- |
| CCCC(C)c1cc(OC(=O)N(C)C)no1 (stereo unspecified) | 50.9 |
| CN(C)C(=O)Oc1cc(CCC2CCCC2)on1 | 13.1 |

Summary for this compound, CN(C)C(=O)n1oc(C2CC2)cc1=O : Ki is 103

Looking up CC(C)CCc1cc(=O)n(C(=O)N(C)C)o1 , I found its Ki recorded as 80.9

Field Ki (entry CC(C)Cc1cc(=O)n(C(=O)N(C)C)o1 ) reads 30.9

# Ki of CN(C)C(=O)Oc1cc(CC(C)(C)C)on1 = 0.44

###

test system: Anopheles gambiae; test: Tarsal contact toxicity in Anopheles gambiae G3 (MRA-112) assessed as mortality measured at 1000 ug/mL at 24 hrs by filter paper assay; type: functional
Listed here are molecules together with their documented mortality at 1000 µg/mL.
Please respond with the number in % and leave the unit unwritten.

Check out these entries, answers already filled in.
| molecule | mortality at 1000 µg/mL [%] |
| --- | --- |
| Cc1cc(=O)n(C(=O)N(C)C)o1 | 0 |
| Cc1cc(OC(=O)N(C)C)no1 | 0 |
| CN(C)C(=O)n1oc(CCC2CCCC2)cc1=O | 0 |

Given item CCCC(C)c1cc(=O)n(C(=O)N2CCOCC2)o1 (centres undefined) , the value recorded as its mortality at 1000 µg/mL is 45

The molecule CCC(C)Cc1cc(OC(=O)N(C)C)no1 (centres undefined) showed mortality at 1000 µg/mL equal to 30

Per the records, this molecule ( CN(C)C(=O)Oc1cc(CCC2CCC2)on1 ) has mortality at 1000 µg/mL equal to 40

Short answer for CN(C)C(=O)Oc1cc(C2CCCC2)on1 : mortality at 1000 µg/mL was 60

The molecule identified as CCC(C)Cc1cc(=O)n(C(=O)N(C)C)o1 (centres undefined) registered its mortality at 1000 µg/mL at 0

###

tested on: Anopheles gambiae; assay: Tarsal contact toxicity in Anopheles gambiae G3 (MRA-112) assessed as mortality measured at 24 hrs by filter paper assay; type: functional
As shown below, each of these molecules has a reported LC50 value.
Report the figure in µg/mL without appending any unit label.

| molecule | result-units | meas-value |
| --- | --- | --- |
| CN(C)C(=O)n1oc(C2CC2)cc1=O | µg/mL | 278 |
| CN(C)C(=O)Oc1cc(C2CCC2)on1 | µg/mL | 349 |
| CNC(=O)Oc1cccc2c1OC(C)(C)C2 | µg/mL | 16 |
| CNC(=O)Oc1cccc2c1OC(C)(C)O2 | µg/mL | 16 |
| CC(C)c1cc(=O)n(C(=O)N(C)C)o1 | µg/mL | 316 |

Recorded LC50 (molecule CN(C)C(=O)Oc1cc(CCC2CCCC2)on1 ): 674

Entry CCC(C)c1cc(OC(=O)N(C)C)no1 (stereo not given) ; LC50 = 41

Lab note: measured LC50 of CCC(C)n1cc(OC(=O)NC)cn1 (stereo not given) was 96

Lookup result for CCCC(C)c1cc(OC(=O)N(C)C)no1 (stereo not given) ; measured LC50: 234

Recorded LC50 (molecule CNC(=O)O/N=C/C(C)(C)SC ): 70

LC50 measured on CC(C)CCc1cc(OC(=O)N(C)C)no1 = 415

Recorded LC50 (molecule CN(C)C(=O)n1oc(CCC2CC2)cc1=O ): 133

Entry CC(C)Cc1cc(=O)n(C(=O)N(C)C)o1 , LC50 reported as 201

What the record says about CCCC(C)c1cc(=O)n(C(=O)N(C)CC)o1 (stereo not given) : LC50 is 400

So, CNC(=O)Oc1ccccc1OC(C)C ? Its LC50 was 39

// LC50 value for CN(C)C(=O)n1oc(C2CCCC2)cc1=O : 105

Form: molecule = CCCC(C)c1cc(=O)n(C(=O)N(C)C)o1 (stereo not given) ; LC50 = 153

CC(C)Cc1cc(OC(=O)N(C)C)no1 yielded LC50 of 253

So, CCC(C)c1cc(=O)n(C(=O)N(C)C)o1 (stereo not given) ? Its LC50 was 63

Reported LC50 ( CNC(=O)Oc1cccc(C(C)(C)C)c1 ) = 37
